The origin of these recorded values is the Immune Epitope Database (IEDB).

- Assay target: HLA-B*40:01
- Experiment description: IEDB peptide-MHC binding, purified MHC/direct/fluorescence; filed as Kd, often an IC50 or EC50 that approximates it; bounds were set here for any values at or beyond the usual limits of such assays
- Conditions used: source organism: Yersinia enterocolitica
Quantity measured: pKd
// pKd here means minus log10 of the molar concentration (mol/L)

The sequence identified as IMDASSFTL registered its pKd at 6.36

* * *

Each entry below carries its reported pKd.
- Assay target: HLA-A*31:01
- Experiment description: IEDB peptide-MHC binding, purified MHC/direct/fluorescence; filed as Kd, often an IC50 or EC50 that approximates it; bounds were set here for any values at or beyond the usual limits of such assays
- Conditions used: source organism: SARS-CoV1
Keep in mind that pKd stands for -log10 of concentration in molar terms.

[[record]]
query_sequence = "RLYYDSMSY"
numeric_result = 5.16


Moving on to the next sequence.
Briefly, pKd measured for KLWAQCVQL : 6.52

* * *

- Assay target: HLA-A*23:01
- Experiment description: IEDB peptide-MHC binding, purified MHC/competitive/radioactivity; filed as Kd, often an IC50 or EC50 that approximates it; bounds were set here for any values at or beyond the usual limits of such assays
- Conditions used: source organism: Triticum aestivum
pKd: −log10 of the molar value.
Quantity measured: pKd

pKd value, target or system HLA-A*23:01, for SFQQPQQQY : ≤ 4.11

* * *

- Assay target: HLA-B*15:01
- Experiment description: IEDB peptide-MHC binding, purified MHC/competitive/fluorescence; bounds were set here for any values at or beyond the usual limits of such assays
- Conditions used: source organism: Vaccinia virus Copenhagen
Quantity measured: IC50

According to the records, this sequence GAMVEYVSA displays IC50 of 25.5 µM

* * *

- Assay target: HLA-B*45:01
- Experiment description: IEDB peptide-MHC binding, purified MHC/competitive/radioactivity; filed as Kd, often an IC50 or EC50 that approximates it; bounds were set here for any values at or beyond the usual limits of such assays
- Conditions used: source organism: Mammarenavirus choriomeningitidis
pKd: −log10 of the molar value.
Quantity measured: pKd

IETALRTLI yielded pKd of ≤ 4.27

* * *

- Assay target: HLA-A*03:01
- Experiment description: IEDB peptide-MHC binding, purified MHC/direct/fluorescence; filed as Kd, often an IC50 or EC50 that approximates it; bounds were set here for any values at or beyond the usual limits of such assays
- Conditions used: source organism: Burkholderia pseudomallei
Quantity measured: Kd

Field Kd (HLA-A*03:01), entry AQAIGRVER : ≥ 20 µM

* * *

- Assay target: HLA-A*26:01
- Experiment description: IEDB peptide-MHC binding, purified MHC/competitive/radioactivity; filed as Kd, often an IC50 or EC50 that approximates it; bounds were set here for any values at or beyond the usual limits of such assays
- Conditions used: source organism: Dengue virus 2 Jamaica/1409/1983
Quantity measured: Kd

ETKQTGSASS yielded Kd of ≥ 25 µM

* * *

- Assay target: HLA-B*46:01
- Experiment description: IEDB peptide-MHC binding, purified MHC/competitive/fluorescence; filed as Kd, often an IC50 or EC50 that approximates it; bounds were set here for any values at or beyond the usual limits of such assays
- Conditions used: source organism: Cryptosporidium parvum Iowa II
pKd: −log10 of the molar value.
Quantity measured: pKd

Note to self: pKd recorded for KLGDITLFL was ≤ 4.70
